- MEASUREMENT TARGET: Cytochrome P450 3A4 (Homo sapiens)
- EXPERIMENT SUMMARY: Cytochrome panel assay with activity outcomes; on activity, negative = inhibition: on the % scale 0 is the no-effect control and ±100 the full control effect
- CONDITION SET: recombinant CYP, pro-luciferin dealkylation, luminescence, p450-cyp3a4; series mostly up to 57.1 µM
About 5,100 (32%) of roughly 16,000 compounds were called active. Another 25% or so got no clear call; they are omitted. This is one part of the list.
Some compounds, each annotated with its measured activity, negative = inhibition.

# count of solved cases: 3
Sample "O=C1Nc2ccccc2C1=Nc1cccc2ncccc12" — what was its activity, negative = inhibition? -14.3% [at 11.4 µM] (inactive)

Name the reported activity, negative = inhibition value associated with the compound "Cn1ccnc1C[C@@](C)(O)c1ccccc1" -4.26% [at 11.4 µM] (inactive)

I'd like to know its activity, negative = inhibition. The compound in question is "Cn1c(CCC(=O)Nc2ccc(N3CCOCC3)cc2)nc(=O)c2ccccc21" -13.8% [at 11.4 µM] (inactive)

New cases:
For the compound shown here, "CC(C)(C)c1ccc(O)c(CN(Cc2c(O)ccc3ccccc23)C2CCCCC2)c1" , give the reported activity, negative = inhibition. -11.1% [at 11.4 µM] (inactive)

// returns reported activity, negative = inhibition for input "c1ccc([P+](CC[P+](c2ccccc2)(c2ccccc2)c2ccccc2)(c2ccccc2)c2ccccc2)cc1" 1.54% [at 11.4 µM] (inactive)

* * *

- MEASUREMENT TARGET: Cytochrome P450 3A4 (Homo sapiens)
- EXPERIMENT SUMMARY: Cytochrome panel assay with activity outcomes
- CONDITION SET: recombinant CYP, pro-luciferin dealkylation, luminescence, p450-cyp3a4; series mostly up to 57.1 µM
In all, about 16,000 compounds went through this assay and about 5,100 (32%) were called active. About 25% were inconclusive and are not listed. Calls come from the whole dose curve; as a rule, active = well fitted curve in the direction sought with a large enough effect; inconclusive = small, poorly fitted or top-dose-only effect, or effect the other way; inactive = no such curve, though single readings can be large or run the other way. The list shows a part of the results.
One label from this list, please: label 1 = active, label 0 = inactive

What classification did "Cc1c(CCO)c(=O)n(C)n1C(=O)c1ccc(F)cc1" end up with in this test? label 0

Fill in: this test's call for COc1ccc([N+](=O)[O-])cc1N(CC(O)CN(CC(C)C)CC(C)C)S(=O)(=O)c1ccccc1 (stereo not drawn) is ___ label 1

Others:
Could you kindly confirm the outcome this assay logged for "COc1ccccc1CNc1nc(-c2ccc3c(c2)OCO3)nc2ccccc12" ? label 1

Which result was noted for this compound in the test: "Cc1oc(-c2ccccc2F)nc1CS(=O)(=O)CC(=O)NCCCN(C)C1CCCCC1" label 1

Lab log entry: "Cc1c(/N=C/c2ccco2)n(Cc2ccccc2)c2ccccc12" — outcome as called in the assay? label 1

* * *

- MEASUREMENT TARGET: Cytochrome P450 3A4 (Homo sapiens) (UniProt P08684)
- Sequence (P08684 whole entry, looked up): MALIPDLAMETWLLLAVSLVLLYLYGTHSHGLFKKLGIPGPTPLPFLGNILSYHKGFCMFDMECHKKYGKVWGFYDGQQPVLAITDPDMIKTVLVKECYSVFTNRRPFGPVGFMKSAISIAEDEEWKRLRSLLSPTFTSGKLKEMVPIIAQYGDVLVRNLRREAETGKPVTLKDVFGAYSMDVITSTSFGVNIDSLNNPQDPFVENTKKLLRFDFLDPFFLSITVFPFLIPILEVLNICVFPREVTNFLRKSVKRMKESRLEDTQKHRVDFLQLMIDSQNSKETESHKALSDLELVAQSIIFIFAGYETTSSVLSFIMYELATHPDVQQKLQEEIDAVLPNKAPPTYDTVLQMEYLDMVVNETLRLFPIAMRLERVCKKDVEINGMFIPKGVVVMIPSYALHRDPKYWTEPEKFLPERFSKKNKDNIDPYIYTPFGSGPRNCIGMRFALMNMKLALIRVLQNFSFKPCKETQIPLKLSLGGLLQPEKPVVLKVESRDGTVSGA
- EXPERIMENT SUMMARY: Cytochrome panel assay with activity outcomes
- CONDITION SET: recombinant CYP, pro-luciferin dealkylation, luminescence, p450-cyp3a4; series mostly up to 57.1 µM
- Protocol: The P450 gene superfamily is involved in the metabolism and clearance of xenobiotics. This assay used various human CYP P450 isozymes to measure the dealkylation of various pro-luciferin substrates to luciferin. The luciferin is then measured by luminescence after the addition of a luciferase detection reagent. […] Inhibitors and some substrates limit the production of luciferin, and decrease measured luminescence. […] 8, Detection, 1 sec, ViewLux luminescent read […]
In all, about 16,000 compounds went through this assay and about 5,100 (32%) were called active. Not shown: some 25% with an inconclusive outcome. Calls follow the shape of the dose curve; as a rule, active = well fitted curve in the direction sought with a large enough effect; inconclusive = small, poorly fitted or top-dose-only effect, or effect the other way; inactive = no such curve, though single readings can be large or run the other way. This is one part of the list.
The reply should be one of these categories: active, inactive

I would be grateful if you could indicate the recorded call for "Cc1ccccc1-c1ccc2ncnc(NCc3cccs3)c2c1" . active

# input for lookup
For this compound, state the assay outcome: "CN1CCN(C(=O)c2ccc(-n3cccc3)cc2)CC1" inactive

* * *

- MEASUREMENT TARGET: Cytochrome P450 3A4 (Homo sapiens) (UniProt P08684)
- EXPERIMENT SUMMARY: Cytochrome panel assay with activity outcomes
- CONDITION SET: recombinant CYP, pro-luciferin dealkylation, luminescence, p450-cyp3a4; series mostly up to 57.1 µM
The campaign covered roughly 16,000 compounds. About 5,100 (32%) were called active. About 25% were inconclusive and are not listed. The call rests on the fitted dose curve; in most records, active means well fitted curve in the direction sought with a large enough effect; inconclusive means small, poorly fitted or top-dose-only effect, or effect the other way; inactive means no such curve, though single readings can be large or run the other way. Some of the results follow.
Your reply should match one of these outcome classes. label 1 (active), label 0 (inactive)

Identify the outcome logged in this assay for the compound shown: "COc1cccc(Cn2c(=O)c(-c3cccs3)nc3cnc(N4CCN(C)CC4)nc32)c1" label 1

Hi, sorry to bother you, what did the test record for "c1ccc(Nc2nc(-c3cccnc3)nc3ccccc23)cc1" ? label 1

Next:
Which result was noted for this compound in the test: "COc1ccccc1CNc1ccnc(-c2c(C)noc2C)n1" label 1

Assay result, entry "CCOC(=O)N1CCC(NC(=O)CS(=O)(=O)Cc2nc(-c3cccc(OC)c3)oc2C)CC1" — outcome? label 1

Assay outcome for "COc1ccc(COc2ccsc2C(=O)Nc2ccc(Cl)c(Cl)c2)cc1" : what was it? label 1

Recorded test outcome, item "CCOc1ccc(NC(=S)N(Cc2ccc(Cl)cc2)Cc2ccco2)cc1" label 1

Per the records of this test, what outcome belongs to "Cc1cccc(NC(=O)CSc2nnc(-c3ccco3)c(-c3ccco3)n2)c1C" ? label 1

Just curious, what result did "Cc1ccc(-n2c(SCC(=O)NCc3ccco3)nc3sc4c(c3c2=O)CC(C)(C)SC4)cc1" get here? label 1

Record lookup: outcome of this test for "CCNC(=S)N1CCC(NC(=O)C2CCCCC2)CC1" ? label 1

* * *

- MEASUREMENT TARGET: Cytochrome P450 3A4 (Homo sapiens)
- EXPERIMENT SUMMARY: Cytochrome panel assay with activity outcomes
- CONDITION SET: recombinant CYP, pro-luciferin dealkylation, luminescence, p450-cyp3a4; series mostly up to 57.1 µM
- Protocol: The P450 gene superfamily is involved in the metabolism and clearance of xenobiotics. This assay used various human CYP P450 isozymes to measure the dealkylation of various pro-luciferin substrates to luciferin. The luciferin is then measured by luminescence after the addition of a luciferase detection reagent. […] Inhibitors and some substrates limit the production of luciferin, and decrease measured luminescence. […] 8, Detection, 1 sec, ViewLux luminescent read […]
Among all 16,000 compounds or so, about 5,100 (32%) were called active. Not shown: some 25% with an inconclusive outcome. The list shows a part of the results.
PROPERTY: AC50

Solved cases below.
Could you share which AC50 value was measured for "CCOC(=O)c1c(NC(=O)c2ccc(N3CCOCC3)c([N+](=O)[O-])c2)sc(C)c1C" ? inactive

Can you share its AC50? I mean this molecule: "COc1ccc(-c2cc(C(F)(F)F)nc(N3CCN(C)CC3)n2)cc1OC" inactive

Value lookup for AC50; key = "COc1cccc(-c2cncnc2NCc2cnc(C)cn2)c1" 1580 nM (active)

So what's the measured AC50 for this one? O=C1Nc2ccccc2C(O)(C(=O)NCc2ccc3c(c2)OCO3)N1c1ccc(Cl)c(Cl)c1 (stereo not drawn) 126 nM (active)

Name the recorded AC50 for "COc1ccc(CNc2ncncc2-c2c(C)noc2C)c(OC)c1" . 1260 nM (active)

New cases:
Using the record for "COc1ccc(C(=O)Nc2ccc(OCC(F)(F)C(F)F)c(C(F)(F)F)c2)cc1OC" , report its AC50. inactive

Find the recorded AC50 belonging to "COc1ccc(CNc2ncncc2-c2ccccc2C)c(OC)c1" and report it. 398 nM (active)

For CCOC(=O)C1=C(COc2ccc(F)cc2Cl)NC(=O)NC1c1cc(C)ccc1C (stereo not drawn) , what is its reported AC50? 6310 nM (active)

Report AC50 for "COc1ccc(-c2cc(C(F)(F)F)nc(NC3CCCC3)n2)cc1OC" please. 25100 nM (active)

Recorded AC50 for "COc1ccc(CNc2ncncc2-c2ccccc2OC)c(OC)c1" , please? 316 nM (active)

Which value of AC50 has been reported for "CC(=O)c1sc(NC(=O)C(C)C)nc1C" in the records? inactive

Tell me the measured AC50 of "COc1ccc(-c2cc(C(F)(F)F)nc(N3CCOCC3)n2)cc1OC" , please. 15800 nM (active)

Would you mind telling me what AC50 value was observed for "O=C(Nc1ccc2ccccc2c1)[C@@H]1C[C@H]1[C@@H](NP(=O)(c1ccccc1)c1ccccc1)c1ccccc1" ? inactive

* * *

- MEASUREMENT TARGET: Cytochrome P450 3A4 (Homo sapiens)
- EXPERIMENT SUMMARY: Cytochrome panel assay with activity outcomes; on activity, negative = inhibition: on the % scale 0 is the no-effect control and ±100 the full control effect
- CONDITION SET: recombinant CYP, pro-luciferin dealkylation, luminescence, p450-cyp3a4; series mostly up to 57.1 µM
The campaign covered roughly 16,000 compounds. About 5,100 (32%) were called active. Roughly 25% stayed inconclusive and do not appear here. Some of the results follow.
Quick list: activity, negative = inhibition per entry.

These recorded examples may help you get a feel for the data.
Quick one: activity, negative = inhibition for "CC(=O)Nc1ccc(S(=O)(=O)NCCc2ccc(F)cc2)cc1" ? -13.3% [at 2.29 µM] (inactive)

What does the data say about its activity, negative = inhibition? Entry: "Nc1nc(Sc2ccc([N+](=O)[O-])c3nonc23)c2[nH]cnc2n1" -24.7% [at 11.4 µM] (inactive)

Given the compound "CC1=c2c(oc3cc(O)c(Nc4c(C)cc(O)cc4O)c(C)c23)=CC(=O)C1=Nc1c(C)cc(O)cc1O" , what is its reported activity, negative = inhibition? -19.4% [at 11.4 µM] (inactive)

Would you mind telling me what activity, negative = inhibition value was observed for "Nc1ncnc2c1ncn2[C@H]1O[C@@H](C(=O)OCCO)[C@@H](O)[C@H]1O" ? -12.9% [at 11.4 µM] (inactive)

I have this compound here, "OCCN(CCO)c1ncnc2nc[nH]c12" , and I need its recorded activity, negative = inhibition. -5.25% [at 11.4 µM] (inactive)

Others:
What activity, negative = inhibition value was documented for this compound, "CC(=O)[C@@H](C)CCO[C@@]1(C)OCC[C@@H]1C" ? -5.36% [at 11.4 µM] (inactive)

// query activity, negative = inhibition value for entry "[N-]=[N+]=NC[C@@H]1O[C@@H](n2cnc3c(N)ncnc32)[C@@H]2O[C@@H]21" -11.8% [at 11.4 µM] (inactive)

# get_value(readout='activity, negative = inhibition', item= "Cc1ccsc1/C=N/Nc1nc(Cl)c(Cl)cc1Cl" ) -21% [at 2.29 µM] (inactive)

So what does the record say about activity, negative = inhibition for "Cn1c(=O)c2c(nc(Cc3ccccc3)n2CC(=O)O)n(C)c1=O" ? -2.47% [at 11.4 µM] (inactive)

Can you look up the measured activity, negative = inhibition of "CN(C)CCn1c(CO)nc2c1c(=O)n(C)c(=O)n2C" for me? -3.94% [at 11.4 µM] (inactive)

For "Cc1cnc(C(=O)OCC(=O)NC(C)C)cn1" , what is its reported activity, negative = inhibition? -1.72% [at 2.29 µM] (inactive)

Source of measurements: PubChem BioAssay AID1851
